- assay.summary: xn = mol fraction of the nth substance listed
- condition.parameters: 308.15 K, x1 = 0.45
observed.property: surface tension liquid-gas (mN/m)

Can you share its surface tension liquid-gas? I mean this compound: CCCCCC(=O)OCC [ethyl hexanoate] + CCO
23.4

Can you share its surface tension liquid-gas? I mean this compound: CCCC(=O)OCCC(C)C [3-methylbutyl butanoate] + CCO
22.9

Can you share its surface tension liquid-gas? I mean this compound: CC(=O)OCCC(C)C [3-methylbutyl ethanoate] + CCO
22.3

Can you share its surface tension liquid-gas? I mean this compound: CCOC(=O)Cc1ccccc1 [ethyl phenylacetate] + CCO
26.8

Can you share its surface tension liquid-gas? I mean this compound: CCOC(=O)c1ccccc1 [ethyl benzoate] + CCO
27.2

Can you share its surface tension liquid-gas? I mean this compound: CCCCCCCC(=O)OCC [ethyl octanoate] + CCO
24.2

###

- assay.summary: xn = mol fraction of the nth substance listed
- condition.parameters: 288.15 K, x1 = 0.6
observed.property: surface tension liquid-gas (mN/m)

Can you share its surface tension liquid-gas? I mean this compound: CCOC(=O)Cc1ccccc1 [ethyl phenylacetate] + CCO
31

Can you share its surface tension liquid-gas? I mean this compound: CCOC(=O)c1ccccc1 [ethyl benzoate] + CCO
30.7

Can you share its surface tension liquid-gas? I mean this compound: CCCCCC(=O)OCC [ethyl hexanoate] + CCO
25.6

Can you share its surface tension liquid-gas? I mean this compound: CC(=O)OCCC(C)C [3-methylbutyl ethanoate] + CCO
24.6

Can you share its surface tension liquid-gas? I mean this compound: CCCCCCCC(=O)OCC [ethyl octanoate] + CCO
26.3

Can you share its surface tension liquid-gas? I mean this compound: CCCC(=O)OCCC(C)C [3-methylbutyl butanoate] + CCO
24.9

###

- assay.summary: refractive index (Na D-line) (dimensionless); xn = mol fraction of the nth substance listed
- condition.parameters: 298.15 K; 100.5 kPa; Liquid; Standard Abbe refractometry; x1 = 0.4
observed.property: refractive index

Can you share its refractive index? I mean this molecule: CCCCCC(=O)OCC [ethyl hexanoate] + CCO
1.38907

Can you share its refractive index? I mean this molecule: CCOC(=O)c1ccccc1 [ethyl benzoate] + CCO
1.45038

Can you share its refractive index? I mean this molecule: CC(=O)OCCC(C)C [3-methylbutyl ethanoate] + CCO
1.3837

Can you share its refractive index? I mean this molecule: CCCCCCCC(=O)OCC [ethyl octanoate] + CCO
1.39818

Can you share its refractive index? I mean this molecule: CCOC(=O)Cc1ccccc1 [ethyl phenylacetate] + CCO
1.44792

Can you share its refractive index? I mean this molecule: CCCC(=O)OCCC(C)C [3-methylbutyl butanoate] + CCO
1.39216

###

- assay.summary: refractive index (Na D-line) (dimensionless); xn = mol fraction of the nth substance listed
- condition.parameters: 318.15 K; 100.5 kPa; Liquid; Standard Abbe refractometry; x1 = 0.05
observed.property: refractive index

Can you share its refractive index? I mean this molecule: CCCC(=O)OCCC(C)C [3-methylbutyl butanoate] + CCO
1.3578

Can you share its refractive index? I mean this molecule: CCOC(=O)Cc1ccccc1 [ethyl phenylacetate] + CCO
1.36852

Can you share its refractive index? I mean this molecule: CCCCCC(=O)OCC [ethyl hexanoate] + CCO
1.35703

Can you share its refractive index? I mean this molecule: CCCCCCCC(=O)OCC [ethyl octanoate] + CCO
1.35953

Can you share its refractive index? I mean this molecule: CCOC(=O)c1ccccc1 [ethyl benzoate] + CCO
1.36815

Can you share its refractive index? I mean this molecule: CC(=O)OCCC(C)C [3-methylbutyl ethanoate] + CCO
1.35556
